The values you see were collected from patent US7714132B2.

- target_or_system: hCRTH2 receptor (Homo sapiens, UniProt Q9Y5Y4)
- Construct: expressed in transfected cells
- method_notes: CRTH2 membranes radioligand binding assay ({3H}-PGD2)
- condition_info: membranes of HEK 293 cells expressing recombinant hCRTH2; {3H}-PGD2 2.5 nM; 90 min
readout: pIC50
Expect pIC50 as a plain number equal to -log10 of the molar concentration.

INPUT: Dear colleague, I am looking for the recorded pIC50 of the following compound: O=C(O)Cn1c2c(c3cc(F)ccc31)CN(C(=O)Cc1cccc3ccccc13)CC2
OUTPUT: 8.52

INPUT: Dear colleague, I am looking for the recorded pIC50 of the following compound: O=C(O)Cn1c2c(c3cc(Br)ccc31)CN(C(=O)c1cccs1)CC2
OUTPUT: 8.40

INPUT: Dear colleague, I am looking for the recorded pIC50 of the following compound: Cc1cccc(C(=O)N2CCc3c(c4ccccc4n3CC(=O)O)C2)c1Br
OUTPUT: 7.85

INPUT: Dear colleague, I am looking for the recorded pIC50 of the following compound: O=C(O)Cn1c2c(c3ccccc31)CN(C(=O)c1cccc3c(Br)cccc13)CC2
OUTPUT: 7.92

INPUT: Dear colleague, I am looking for the recorded pIC50 of the following compound: O=C(O)Cn1c2c(c3ccccc31)CN(C(=O)c1cccc(Cl)c1)CC2
OUTPUT: 7.82

INPUT: Dear colleague, I am looking for the recorded pIC50 of the following compound: CCc1ccc(-c2ccc(C(=O)N3CCc4c(c5cc(F)ccc5n4CC(=O)O)C3)cc2)cc1
OUTPUT: 9.00

INPUT: Dear colleague, I am looking for the recorded pIC50 of the following compound: CCc1ccc(-c2ccc(C(=O)N3CCc4c(c5ccccc5n4CC(=O)O)C3)cc2)cc1
OUTPUT: 8.15

INPUT: Dear colleague, I am looking for the recorded pIC50 of the following compound: O=C(O)Cn1c2c(c3cc(C(F)(F)F)ccc31)CN(C(=O)c1ccccc1)CC2
OUTPUT: 9.00

====

- target_or_system: hCRTH2 receptor (Homo sapiens, UniProt Q9Y5Y4)
- Construct: expressed in transfected cells
- Sequence (Q9Y5Y4 1-395): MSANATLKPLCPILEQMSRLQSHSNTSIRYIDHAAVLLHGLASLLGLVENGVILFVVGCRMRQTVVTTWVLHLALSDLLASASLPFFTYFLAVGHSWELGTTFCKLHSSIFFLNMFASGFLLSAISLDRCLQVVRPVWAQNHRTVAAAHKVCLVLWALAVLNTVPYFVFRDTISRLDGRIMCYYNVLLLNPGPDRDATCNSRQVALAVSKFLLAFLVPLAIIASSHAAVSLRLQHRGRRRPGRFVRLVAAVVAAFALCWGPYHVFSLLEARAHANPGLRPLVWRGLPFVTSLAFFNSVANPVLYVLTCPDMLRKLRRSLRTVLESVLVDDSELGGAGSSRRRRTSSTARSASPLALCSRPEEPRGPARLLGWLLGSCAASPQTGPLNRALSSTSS
- method_notes: Intracellular calcium mobilization assay (FLIPR), antagonism of prostaglandin D2
- Format: cell-based
- condition_info: HEK-293 cells stably expressing hCRTH2; agonist prostaglandin D2 10 nM final; read-out: FLIPR CRTH2 IC50
pIC50: −log10 of the molar value.
Classify by measured pIC50: True if it is equal to or exceeds 7, False if it is smaller.

INPUT: Is reported pIC50 greater than or equal to 7 here: CC(C)(C)OC(=O)N1CCc2c(c3cc(F)ccc3n2CC(=O)O)C1
OUTPUT: True

INPUT: Is reported pIC50 greater than or equal to 7 here: O=C(O)Cn1c2c(c3ccccc31)CN(C(=O)c1cccc3[nH]ccc13)CC2
OUTPUT: True

INPUT: Is reported pIC50 greater than or equal to 7 here: COc1ccc2ccccc2c1C(=O)N1CCc2c(c3cc(Cl)ccc3n2CC(=O)O)C1
OUTPUT: True

INPUT: Is reported pIC50 greater than or equal to 7 here: O=C(O)Cn1c2c(c3cc(Cl)ccc31)CN(C(=O)c1cccs1)CC2
OUTPUT: True

INPUT: Is reported pIC50 greater than or equal to 7 here: Cc1cccc(C(=O)N2CCc3c(c4cc(Br)ccc4n3CC(=O)O)C2)c1Br
OUTPUT: True

INPUT: Is reported pIC50 greater than or equal to 7 here: O=C(O)Cn1c2c(c3ccccc31)CN(C(=O)c1cccc(Cl)c1)CC2
OUTPUT: False

====

- target_or_system: hCRTH2 receptor (Homo sapiens)
- Construct: expressed in transfected cells
- Sequence (Q9Y5Y4 1-395): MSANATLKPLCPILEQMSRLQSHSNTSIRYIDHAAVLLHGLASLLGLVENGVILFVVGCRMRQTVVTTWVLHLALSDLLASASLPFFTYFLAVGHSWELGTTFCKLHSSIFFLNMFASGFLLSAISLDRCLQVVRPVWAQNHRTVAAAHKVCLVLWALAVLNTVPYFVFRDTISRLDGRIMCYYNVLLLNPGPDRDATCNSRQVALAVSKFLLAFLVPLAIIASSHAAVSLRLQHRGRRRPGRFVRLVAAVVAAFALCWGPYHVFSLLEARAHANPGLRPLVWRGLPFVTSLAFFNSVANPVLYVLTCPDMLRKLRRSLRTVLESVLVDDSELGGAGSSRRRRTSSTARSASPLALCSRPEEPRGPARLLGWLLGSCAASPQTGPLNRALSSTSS
- method_notes: Intracellular calcium mobilization assay (FLIPR), antagonism of prostaglandin D2
- Type: cell-based
- condition_info: HEK-293 cells stably expressing hCRTH2; agonist prostaglandin D2 10 nM final; read-out: FLIPR CRTH2 IC50
readout: pIC50
Expect pIC50 as a plain number equal to -log10 of the molar concentration.

INPUT: Dear colleague, I am looking for the recorded pIC50 of the following molecule: O=C(O)Cn1c2c(c3ccccc31)CN(C(=O)c1ccc(Br)cc1)CC2
OUTPUT: 7.08

INPUT: Dear colleague, I am looking for the recorded pIC50 of the following molecule: O=C(O)Cn1c2c(c3ccccc31)CN(C(=O)c1ccco1)CC2
OUTPUT: 7.06

INPUT: Dear colleague, I am looking for the recorded pIC50 of the following molecule: COc1cc(C(=O)N2CCc3c(c4ccccc4n3CC(=O)O)C2)cc(OC)c1OC
OUTPUT: 7.04
